Tested on: binding partner of C5A (XPA23)
Run description: Biacore
Measured property: fold affinity vs original

Sample C5A (XPA23) VH S54K (antibody, V domains shown) VH: EVQLLESGGGLVQPGGSLRLSCAASGFTFSKYFMFWVRQAPGKGLEWVSVISPKGGMTRYADSVKGRFTISRDNSKNTLYLQMNSLRAEDTAVYYCARVGYGGNSDYWGQGTLVTVSS VL: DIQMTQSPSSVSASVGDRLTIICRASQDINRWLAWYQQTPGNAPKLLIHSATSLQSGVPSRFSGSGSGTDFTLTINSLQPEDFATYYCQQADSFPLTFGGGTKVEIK — what was its fold affinity vs original?
1.53 fold

Name the reported fold affinity vs original value associated with the binder C5A (XPA23) VH I51Q (antibody, V domains shown) VH: EVQLLESGGGLVQPGGSLRLSCAASGFTFSKYFMFWVRQAPGKGLEWVSVQSPSGGMTRYADSVKGRFTISRDNSKNTLYLQMNSLRAEDTAVYYCARVGYGGNSDYWGQGTLVTVSS VL: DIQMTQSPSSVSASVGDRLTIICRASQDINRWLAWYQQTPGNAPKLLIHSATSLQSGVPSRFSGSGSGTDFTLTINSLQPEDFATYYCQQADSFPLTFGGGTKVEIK
0.83 fold

Could you share which fold affinity vs original value was measured for C5A (XPA23) VH T58Y (antibody, V domains shown) VH: EVQLLESGGGLVQPGGSLRLSCAASGFTFSKYFMFWVRQAPGKGLEWVSVISPSGGMYRYADSVKGRFTISRDNSKNTLYLQMNSLRAEDTAVYYCARVGYGGNSDYWGQGTLVTVSS VL: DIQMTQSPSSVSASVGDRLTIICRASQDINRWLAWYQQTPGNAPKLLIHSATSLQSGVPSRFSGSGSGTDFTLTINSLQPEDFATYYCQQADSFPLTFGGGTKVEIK ?
1.01 fold
